# systemUnderTest: hGPR119 (Homo sapiens, UniProt Q8TDV5)
# Construct: expressed in transfected cells; host or cells: CHO
# assayOverview: In vitro cyclic AMP assay (Cisbio dynamic 2 HTRF kit) in CHO-hGPR119 cells
# Assay type: cell-based
# conditions: 1 h, cAMP, compound at 1 μM, 60 min, read-out: Induction (% induction at 1 μM)
Would you mind labelling by activation at 1 µM? At or over 20% is 1.0, under is 0.0.

| compound | systemUnderTest | label |
| --- | --- | --- |
| CC(C)c1noc(N2CCC(Oc3nc4ccc(Oc5ccc(S(C)(=O)=O)cc5)nc4s3)CC2)n1 [Compound 1005] | hGPR119 (Homo sapiens, UniProt Q8TDV5) | 0.0 |
| CC(C)c1noc(N2CCC(C(Oc3nc4ccc(-c5ccc(S(C)(=O)=O)cc5)nc4s3)C(F)(F)F)CC2)n1 (stereo not shown) [Compound 1094] | hGPR119 (Homo sapiens, UniProt Q8TDV5) | 1.0 |
| CC(C)c1noc(N2CCC(C(C)Oc3nc4ccc(-c5ccc(N6CCNC6=O)nc5)nc4s3)CC2)n1 (stereo not shown) [Compound 1144] | hGPR119 (Homo sapiens, UniProt Q8TDV5) | 1.0 |
| CC(Oc1nc2ccc(-c3ccc(S(C)(=O)=O)cc3)nc2s1)C1CCN(c2cnc(Cl)cn2)CC1 (stereo not shown) [Compound 1148] | hGPR119 (Homo sapiens, UniProt Q8TDV5) | 1.0 |
| CC(Oc1nc2ccc(-c3ccc(S(C)(=O)=O)nc3)nc2s1)C1CCN(c2ncc(C(F)(F)F)cn2)CC1 (stereo not shown) [Compound 1159] | hGPR119 (Homo sapiens, UniProt Q8TDV5) | 1.0 |
| CC(C)c1noc(N2CC=C(CCOc3nc4ccc(-c5ccc(S(C)(=O)=O)cc5)nc4s3)CC2)n1 [Compound 1035] | hGPR119 (Homo sapiens, UniProt Q8TDV5) | 0.0 |
| CC(C)c1nsc(N2CCC(C(C)Oc3nc4ccc(-c5ccc(S(C)(=O)=O)cc5)nc4s3)CC2)n1 (stereo not shown) [Compound 1107] | hGPR119 (Homo sapiens, UniProt Q8TDV5) | 0.0 |

----------
Reported activation at 1 µM values for a set of compounds
# systemUnderTest: hGPR119 (Homo sapiens, UniProt Q8TDV5)
# Construct: expressed in transfected cells; host or cells: CHO
# Sequence (Q8TDV5 1-335): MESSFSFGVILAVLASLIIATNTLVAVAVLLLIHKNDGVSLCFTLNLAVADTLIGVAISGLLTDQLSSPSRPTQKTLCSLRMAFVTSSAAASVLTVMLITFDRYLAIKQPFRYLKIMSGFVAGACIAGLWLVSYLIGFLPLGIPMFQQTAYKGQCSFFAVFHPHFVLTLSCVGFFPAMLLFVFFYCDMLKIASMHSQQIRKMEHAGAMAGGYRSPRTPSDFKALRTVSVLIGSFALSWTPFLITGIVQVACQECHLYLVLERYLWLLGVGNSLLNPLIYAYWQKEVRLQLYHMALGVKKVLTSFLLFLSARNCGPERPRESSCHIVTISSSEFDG
# assayOverview: In vitro cyclic AMP assay (Cisbio dynamic 2 HTRF kit) in CHO-hGPR119 cells
# Format: cell-based
# conditions: 1 h, cAMP, compound at 1 μM, 60 min, read-out: Induction (% induction at 1 μM)

| compound | activation at 1 µM (%) |
| --- | --- |
| CC(C)c1noc(N2CCC(C(C)Oc3nc4ccc(-c5cc[n+]([O-])cc5)nc4s3)CC2)n1 (stereo not shown) | 48 |
| CC(Oc1nc2ccc(-c3ccc(S(C)(=O)=O)cc3)nc2s1)C1CCN(S(=O)(=O)C2CC2)CC1 (stereo not shown) | 0 |
| C=C(C)c1cnc(N2CCC(C(C)Oc3nc4ccc(-c5ccc(S(C)(=O)=O)cc5)nc4s3)CC2)nc1 (stereo not shown) | 47 |
| CC(C)c1cnc(N2CCC(C(C)Oc3nc4ccc(-c5ccc(S(C)(=O)=O)cc5)nc4s3)CC2)nc1 (stereo not shown) | 57 |
| CC(C)c1noc(N2CCC([C@H](C)Oc3nc4ccc(-c5ccnc(F)c5)nc4s3)CC2)n1 | 82 |
| CCc1noc(N2CCC(C(C)Oc3nc4ccc(-c5ccc(S(C)(=O)=O)nc5)nc4s3)CC2)n1 (stereo not shown) | 54 |
| CC(C)c1noc(N2CCC(COc3nc4ccc(-c5ccncc5F)nc4s3)CC2)n1 | 12 |
